Target: T1, hCD112R mFC recombinant protein (human; murine, UniProt Q6DKI7 41-160)
T1 construct: range 41-160; expressed in 293E cells; also called hCD112R ECD mFC; hCD112R-ECD-mFC; not shown: murine IgG2a Fc domain (MX2-mFc vector)
T1 sequence (looked up): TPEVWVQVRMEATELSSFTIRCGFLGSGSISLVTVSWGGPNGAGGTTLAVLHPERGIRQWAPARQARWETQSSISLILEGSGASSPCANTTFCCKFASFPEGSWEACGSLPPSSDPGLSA
Assay: ELISA, coated hCD112R-ECD-mFC
test readout: EC50 (ng/mL)
Report only the number, with the unit ng/mL understood.

Worked examples follow.
binder: Hu29 (antibody, IgG4, V domains shown, humanized IgG4) VH: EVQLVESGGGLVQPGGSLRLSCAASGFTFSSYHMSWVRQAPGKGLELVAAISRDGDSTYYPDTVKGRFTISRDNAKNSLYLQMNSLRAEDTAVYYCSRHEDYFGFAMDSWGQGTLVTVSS VL: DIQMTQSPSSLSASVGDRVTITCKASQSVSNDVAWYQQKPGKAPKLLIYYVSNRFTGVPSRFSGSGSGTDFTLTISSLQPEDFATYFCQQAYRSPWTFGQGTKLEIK
test readout: EC50
unit text: ng/mL
recorded value: 4.13
//
binder: Hu19 (antibody, IgG4, V domains shown, humanized IgG4) VH: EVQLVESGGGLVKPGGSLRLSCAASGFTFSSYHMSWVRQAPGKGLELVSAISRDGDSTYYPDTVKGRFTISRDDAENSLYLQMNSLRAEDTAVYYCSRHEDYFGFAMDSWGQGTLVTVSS VL: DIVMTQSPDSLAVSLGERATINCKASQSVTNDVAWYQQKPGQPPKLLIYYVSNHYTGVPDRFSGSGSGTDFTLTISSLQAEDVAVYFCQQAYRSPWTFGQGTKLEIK
test readout: EC50
unit text: ng/mL
recorded value: 4.11

Okay, next one:
q: What value of EC50 has been reported for the following binder? Hu57 (antibody, IgG4, V domains shown, humanized IgG4) VH: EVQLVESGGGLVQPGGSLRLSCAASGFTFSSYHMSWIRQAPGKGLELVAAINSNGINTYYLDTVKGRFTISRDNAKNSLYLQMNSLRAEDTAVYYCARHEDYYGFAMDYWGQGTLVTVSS VL: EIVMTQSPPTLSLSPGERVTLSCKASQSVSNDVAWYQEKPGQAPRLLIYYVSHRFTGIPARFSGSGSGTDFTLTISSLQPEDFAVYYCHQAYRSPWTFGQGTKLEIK
a: 5.35
